Exercise: for every item that follows, state its recorded TGI.
System: HL-60(TB) leukemia
Experiment: NCI tumour cell line growth inhibition, 48 h

Example compounds with recorded TGI:
Query (compound): "O=S(=O)(Nc1cc(F)cc(F)c1)c1ccc(-c2cnc(C3CC3)o2)cc1" ; field requested: TGI
13.8 µM

Query (compound): CC1CC(c2ccccc2)Nc2nc3ccccc3n21 (stereo not given) ; field requested: TGI
> 100 µM

Query (compound): "COc1ccc(CNc2nc3ccccc3nc2C(=O)O)cc1OC" ; field requested: TGI
> 100 µM

Hey, quick one: what's TGI for each of these?
1. O=C1C2=C(C(c3ccccc3)=C1c1ccccc1)c1ccccc1C1(c3ccccc3)C2=C(O)C(c2ccccc2)=C1c1ccccc1 (stereo not given)
2. O=c1oc2c([N+](=O)[O-])cc([N+](=O)[O-])cc2c2ccccc12

["> 100 µM", "> 100 µM"]

Hey, quick one: what's TGI for each of these?
1. CC(=O)Nc1ccc(C(=O)NN2C(=O)C(Cl)C2c2cc(Br)cc(Br)c2O)cc1 (stereo not given)
2. O=C(O)CCC1(C(=O)O)CCC(=O)c2ccccc21 (stereo not given)
3. O=C(O)C(CCc1ccccc1)N1C(=O)c2ccccc2C1=O (stereo not given)
4. [N-]=[N+]=Nc1cccc(-c2n[nH]c(Cl)cc2=O)c1
5. COC(=O)[C@]12CC[C@@H](C)[C@H](C)[C@@H]1C1=CC[C@@H]3[C@@]4(C)C[C@@H](OC(C)=O)[C@H](O)[C@@](C)(CO)[C@@H]4[C@H](O)C[C@@]3(C)[C@]1(C)CC2
6. COc1ccc2c(c1)C(=O)C1(C2)[C@H](c2ccccc2)C2C(=O)c3cc(OC)ccc3C2[C@H]1c1ccccc1 (stereo not given in full)
7. COc1ccc(/C=C(/C(=O)N2CCCCC2)c2cc(OC)c(OC)c(OC)c2)cc1

1: > 100 µM; 2: > 100 µM; 3: > 100 µM; 4: > 100 µM; 5: 31.6 µM; 6: > 100 µM; 7: 4.1 µM

Hey, quick one: what's TGI for each of these?
1. CC1(c2ccc(Cl)cc2)NC(=NCCO)c2ccccc21 (stereo not given)
2. O=C1c2ccccc2S(=O)(=O)N1CSC(=S)N1CCOCC1
3. CCOC(=O)c1cc(C(=O)c2cc(OC)c(OC)c(OC)c2)n2nc(C)ccc12
4. O=C(NCCn1ccnn1)Nc1ccccc1
5. CC(C)(C(=O)NCC(F)(F)C(F)(F)F)C(=O)N[C@@H]1C(=O)Nc2ccccc2-c2ccccc21
6. Cc1ccc(S(=O)(=O)C2=C([Si](C)(C)C)C3CC2[C@@H]2C4C=CC(CC4)[C@H]32)cc1 (stereo not given in full)

> 35.5 µM
49.9 µM
0.588 µM
> 100 µM
> 100 µM
> 100 µM

Hey, quick one: what's TGI for each of these?
1. CS(=O)(=O)Nc1ccc2c(c1)N(S(C)(=O)=O)CC2COS(C)(=O)=O (stereo not given)
2. CCOC(=O)c1cc(C)n(CN(CCO)Cn2nc(C(=O)OCC)cc2C)n1

["88.3 µM", "> 100 µM"]
